Protocol: amyloid nucleation score (Sup35N fusion, yeast selection) (log enrichment); library NNK2; higher = more nucleation; inactive = no reads after selection;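 also: zero at mode of non-aggregating sequences after 7 days selection at 30°C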
Measured Endpoint: amyloid nucleation score
Would you mind answering with just the numeric figure?

The cases that follow already have their amyloid nucleation score on record.
# Sequence Record, amyloid nucleation score
records = [
    ("FKVLVSLALSRECS", -0.75),
    ("TMSPCINASIFWDYA", 3.08),
    ("LSRSDAVRAFFRIMVLWKVV", -0.32),
    ("GHSIVLCCRSESPLKKSRYM", -0.432),
    ("RMRQASEAKSLGGPIGRQGL", 1.2),
]

// amyloid nucleation score lookup, sequence = WNECVFGAPAFSRE , result: 3.11

Record PEGISNGLK . Reported amyloid nucleation score: -1.44

Note to self: amyloid nucleation score recorded for WLLVDGEH was 0.025

TSRWDWIINSVRHIYWFSCF yielded amyloid nucleation score of 4.26

----------
Item-by-item account of amyloid nucleation score
Protocol: amyloid nucleation score (Sup35N fusion, yeast selection) (log enrichment); library NNK1; higher = more nucleation; inactive = no reads after selection
Please give only the number in your answer, with no unit.

Check out these entries, answers already filled in.
# Substance, amyloid nucleation score
measured = [
    ("FWVRSGCVSMYGPRRVALEV", -0.003),
    ("WWSRTLSLLE", -0.035),
    ("EITWCF", 0.485),
    ("WRGRVTKFRVLH", 0.105),
    ("RDDLNTTWFLGRSTLGLMLW", 0.168),
    ("CDYLNGLKGYSP", -0.19),
    ("GLWQWAIHLRWIGIEHTQTR", 0.295),
    ("GGYGSIECFRSLVREKCCSV", 0.086),
    ("AVCYHGFRMATAASEVCGAS", 0.327),
    ("DSSLCFGSYLWLVAMSLK", -0.489),
]

Value of amyloid nucleation score reported for the substance HHHLNYTINIRQSYFVMCGG is 5

substance WFCVHKTVSLDMASVDRKGQ , amyloid nucleation score observed: 4.8

The recorded amyloid nucleation score for SRVISLPVLKI is -0.302

Reported amyloid nucleation score for SSTILQLCSPNRRLRSTKLG was 1.97

Memo: LCDFVLNIEREVNVYSFIKL , reported amyloid nucleation score: 2.34

Reported amyloid nucleation score for CGVMDGYLTAK was -0.619

Data point: SLCVWDSFNPERTGLFMRWI ; amyloid nucleation score = 0.99

Item: KTGFYGFMVGM | amyloid nucleation score: 4.54

amyloid nucleation score recorded for this substance, SRGLFCWWRSTWRGVL , is -1.28

The recorded amyloid nucleation score for SGTESEFKVKMNKLQSSYMG is -0.022

Lookup result for NNACMSSYVVGYRSIVMVK ; measured amyloid nucleation score: 0.558

// amyloid nucleation score value for SGAPRSCFNHSVFRMRASCL : 0.114

The recorded amyloid nucleation score for EGACVKSRVWDRINVTGRSR is 1.25

// VRARVLSKTIMMTTYERHLV : amyloid nucleation score value = -0.691

----------
amyloid nucleation score listing for selected substances.
Protocol: amyloid nucleation score (Sup35N fusion, yeast selection) (log enrichment); library NNK1; higher = more nucleation; inactive = no reads after selection

Look over these answered cases.
# Substance, amyloid nucleation score
data = [
    ("NLWKVFCSCLNRDMKALGNW", -1.04),
    ("TDIHTVHRSNLVKVLRKGMN", -0.411),
    ("PKMPGMVYDTPN", -1.49),
]

get_value(item= ANIHYL , readout=amyloid nucleation score) returns 2.63
